Where these numbers come from: ChEMBL document CHEMBL3779890

Item-by-item account of solubility at 0.25 h
method.notes: Solubility of the compound in water at room temperature after 15 mins by HPLC analysis
Assay type: physicochemical
API: value field is a number in µg/mL; no unit string.

[
  {
    "molecule": "N=C(N)NCC(=O)N1C(=O)NC(c2ccccc2)(c2ccccc2)C1=O.O=C(O)C(F)(F)F",
    "readout.unit": "µg/mL",
    "solubility at 0.25 h": 10200
  },
  {
    "molecule": "C[C@H](NC(=N)N)C(=O)Nc1ccc(S(=O)(=O)Nc2nccs2)cc1.O=C(O)C(F)(F)F",
    "readout.unit": "µg/mL",
    "solubility at 0.25 h": 7100
  },
  {
    "molecule": "O=C1NC(=O)C(c2ccccc2)(c2ccccc2)N1 [PHENYTOIN]",
    "readout.unit": "µg/mL",
    "solubility at 0.25 h": 6.3
  }
]

Quickly give me recorded solubility at 0.25 h for Nc1ccc(S(=O)(=O)Nc2nccs2)cc1.O=C(O)C(F)(F)F 1.4
